- TARGET_OR_TEST_SYSTEM: T1, pig NPR1 extracellular domain expressed with a C-terminal myc-myc-hexahistidine (pig)
- T1 chain: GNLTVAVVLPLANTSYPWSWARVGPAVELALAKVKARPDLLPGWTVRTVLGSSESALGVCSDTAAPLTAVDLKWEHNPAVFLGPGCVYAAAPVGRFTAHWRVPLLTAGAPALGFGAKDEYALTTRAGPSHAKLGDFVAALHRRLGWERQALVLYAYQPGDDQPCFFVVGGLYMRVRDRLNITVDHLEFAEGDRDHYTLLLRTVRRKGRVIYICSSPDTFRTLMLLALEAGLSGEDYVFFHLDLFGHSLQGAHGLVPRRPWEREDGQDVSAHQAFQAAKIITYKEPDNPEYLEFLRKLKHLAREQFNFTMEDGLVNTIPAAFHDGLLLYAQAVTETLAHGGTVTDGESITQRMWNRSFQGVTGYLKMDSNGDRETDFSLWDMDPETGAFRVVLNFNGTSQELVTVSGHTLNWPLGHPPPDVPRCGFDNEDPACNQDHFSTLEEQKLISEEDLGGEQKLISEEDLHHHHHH
- TEST_PROTOCOL: SPR Biacore 8K, mAb captured via anti-hFc, 37 C
- Experimental: The equilibrium dissociation constant (KD) for different NPR1 reagents binding to purified anti-NPR1 monoclonal antibodies (mAbs) were determined using a real-time surface plasmon resonance (SPR) based Biacore 8k biosensor. All binding studies were performed in 10 mM HEPES, 150 mM NaCl, 3 mM EDTA, and 0.05% v/v Surfactant P20, pH 7.4 (HBS-EP) running buffer at 25° C. and 37° C. […]
MEASUREMENT_TYPE: 40 nM Ag Bound (RU)
Record the value in RU, omitting the unit from your answer.

BINDER | UNIT_NAME | 40 nM Ag Bound (RU)
REGN7541 (antibody, human IgG4 S228P, kappa, V domains shown, also called mAb38067) VH: EVQLVESGGGLVQPGGSLRLSCAASGFTFSSYAMSWVRQAPGKGLEWVSTISGSGTNTYYADSVKGRFTISNDNSKNTLYLQMNSLRAEDTAVYYCANYDILTGHSFEYWGQGTLVTVSS VL: AIQMTQSPSSLSASVGDRVTITCRASQGIRNDLGWYQQKPGKAPELLIYAASRLPSGVPLRFSGSGSGTDFTLTISSLQPEDVATYYCLQDYNYPFTFGPGTKVDIKR | RU | 0
H4H22034 (antibody, human IgG4 S228P, kappa, V domains shown, also called H4H22034N; mAb22034) VH: EVQLLESGGDLVQPGGSLRLSCAASGFTFSDYAMIWVRQTPGKGLEWVSGISGGGGSTDYADSVKGRFTTSRDNVKNAMYLQMNSLRTEDTAVYYCAREDQLPSYHNYYGMDVWGQGTTVTVSS VL: DIQMTQSPSSVSASVGDRVTITCRASQGINNYLAWFQQKPGKAPKSLIYGASSLQSGVPSKFSGSRSGIDFTLTISSLQPEDFATYYCQQYNSYPYTFGQGTKLEIKR | RU | 0
REGN7548 (antibody, human IgG4 S228P, kappa, V domains shown, also called mAb38090) VH: QVQLVQSGAEVKKPGASVKVSCKASGYTFTSYYIHWVRQAPGQGLEWMGIISPSDGYTSYAQNFQGRVTMTRDTSTNTVYMDLSSLRSEDTAMFYCARNDPLTTVALDYWGQGTLVTVSS VL: AIQMTQSPSSLSASVGDRVTITCRASQGIRYDLGWFQQKPGKAPKLLIHAASSLQSGVPSRFSGSGSGTDFTLTISSLQPEDFATYYCLQDYNYPFTFGQGTKLEIKR | RU | 14

Next item in the queue.
Consider the binder shown here: REGN7544 (antibody, human IgG4 S228P, kappa, V domains shown, also called mAb38072) VH: EVQLVESGGGLVQPGGSLRLSCAASGFSFVSYVMGWVRQAPGKGLEWVSSISGSLTNTYYADPVKGRFTISRDNSKNTLYLQMNSLRAEDTAAYYCVTYDILTGHLFDYWGQGTLVTVSS VL: AIQMTQSPSSLSASVGDRVTITCRSSQGIRNDFGWYQQKPGKAPKLLIYAASRLQSGVPSRFSGSGSGTDFTLTINNLQPEDFATYYCLQDYTYPFTFGPGTKVDIKR What is its recorded 40 nM Ag Bound (RU)? 5
